- test-target: IDH1R132L_D279N cis (Homo sapiens, UniProt O75874, D279N/R132L)
- protocol-text: 2-HG cell-based inhibition assay, U87MG IDH1R132L_D279N cis
- stated-conditions: Cell line construct U87MG IDH1R132L_D279N cis; 2-HG by LC-MS
quantity-name: IC50 (nM)
Please reply with the bare figure in nM and do not write the unit itself.

For record C=CC(=O)N1CCN([C@@H](CC2CC2)c2ccc([C@H](C)Nc3ncc4c(n3)N(CC)C(=O)OC4)cc2)CC1 [Compound A] the listed IC50 is 645

###

- test-target: IDH1R132L_S280F cis (Homo sapiens, UniProt O75874, R132L/S280F)
- Sequence (O75874 whole entry R132L/S280F): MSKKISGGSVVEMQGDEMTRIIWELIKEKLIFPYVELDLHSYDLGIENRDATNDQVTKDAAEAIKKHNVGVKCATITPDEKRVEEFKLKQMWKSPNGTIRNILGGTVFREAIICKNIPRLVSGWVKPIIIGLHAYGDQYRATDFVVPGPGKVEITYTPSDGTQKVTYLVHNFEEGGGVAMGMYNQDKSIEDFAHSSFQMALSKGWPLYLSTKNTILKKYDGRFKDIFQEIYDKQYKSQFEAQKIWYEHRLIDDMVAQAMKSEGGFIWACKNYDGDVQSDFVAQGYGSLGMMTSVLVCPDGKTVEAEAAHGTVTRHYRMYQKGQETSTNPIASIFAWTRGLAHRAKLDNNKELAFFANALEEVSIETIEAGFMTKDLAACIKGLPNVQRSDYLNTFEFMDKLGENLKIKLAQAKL
- protocol-text: 2-HG cell-based inhibition assay, U87MG IDH1R132L_S280F cis
- stated-conditions: Cell line construct U87MG IDH1R132L_S280F cis; 2-HG by LC-MS
quantity-name: pIC50
Remember the convention: pIC50 equals -log10 of concentration in molar.

For record C=CC(=O)N1CCN([C@@H](CC2CC2)c2ccc([C@H](C)Nc3ncc4c(n3)N(CC)C(=O)OC4)cc2)CC1 [Compound A] the listed pIC50 is 6.75

###

- test-target: IDH1R132H_G131A cis (Homo sapiens, UniProt O75874, G131A/R132H)
- Construct: expressed in transfected cells; host or cells: U-87 MG (ATCC HTB-14)
- Sequence (O75874 whole entry G131A/R132H): as the sequence (O75874 whole entry R132L/S280F) above, with G131A, L132H, F280S counted along it
- protocol-text: 2-HG cell-based inhibition assay, U87MG IDH1R132H_G131A cis
- stated-conditions: Cell line construct U87MG IDH1R132H_G131A cis; 2-HG by LC-MS
quantity-name: IC50
Number first, unit second: that is the form wanted.

For record C=CC(=O)N1CCN([C@@H](CC2CC2)c2ccc([C@H](C)Nc3ncc4c(n3)N(CC)C(=O)OC4)cc2)CC1 the listed IC50 is 5.89 nM

###

- test-target: R132C_S280F mutant IDH1 (Homo sapiens, UniProt O75874, R132C/S280F)
- Construct: myc; expressed in transfected cells; host or cells: Ba/F3 (DSMZ ACC 300), stably transfected
- Sequence (O75874 whole entry R132C/S280F): as the sequence (O75874 whole entry R132L/S280F) above, with L132C counted along it
- protocol-text: 2-HG cell-based inhibition assay, U87MG R132C_S280F
- stated-conditions: Cell line construct U87MG R132C_S280F; 2-HG by LC-MS
quantity-name: pIC50
Remember the convention: pIC50 equals -log10 of concentration in molar.

For record C=CC(=O)N1CCN([C@@H](CC2CC2)c2ccc([C@H](C)Nc3ncc4c(n3)N(CC)C(=O)OC4)cc2)CC1 the listed pIC50 is 7.90

###

- test-target: IDH1R132L_H315D cis (Homo sapiens, UniProt O75874, H315D/R132L)
- protocol-text: 2-HG cell-based inhibition assay, U87MG IDH1R132L_H315D cis
- stated-conditions: Cell line construct U87MG IDH1R132L_H315D cis; 2-HG by LC-MS
quantity-name: IC50 (nM)
Please reply with the bare figure in nM and do not write the unit itself.

Per the reported IDH1R132L_H315D cis (Homo sapiens, UniProt O75874, H315D/R132L) data, C=CC(=O)N1CCN([C@@H](CC2CC2)c2ccc([C@H](C)Nc3ncc4c(n3)N(CC)C(=O)OC4)cc2)CC1 [Compound A] has IC50 of 5.07

###

- test-target: IDH1R132L_G289D cis (Homo sapiens, UniProt O75874, G289D/R132L)
- Sequence (O75874 whole entry R132L/G289D): as the sequence (O75874 whole entry R132L/S280F) above, with F280S, G289D counted along it
- protocol-text: 2-HG cell-based inhibition assay, U87MG IDH1R132L_G289D cis
- stated-conditions: Cell line construct U87MG IDH1R132L_G289D cis; 2-HG by LC-MS
quantity-name: IC50
Number first, unit second: that is the form wanted.

For record C=CC(=O)N1CCN([C@@H](CC2CC2)c2ccc([C@H](C)Nc3ncc4c(n3)N(CC)C(=O)OC4)cc2)CC1 [Compound A] the listed IC50 is 29.4 nM
